Entries annotated with measured protein stability index
B1: LOXL2 (parent)
chain: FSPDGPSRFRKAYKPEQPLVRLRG

# Variants of: B1
# Test details: protein stability index of a GFP-peptide fusion (GPS, HEK-293T) (PSI 1-6); higher = more stable;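 note: lentivirally expressed fusions sorted by FACS into six bins by GFP to DsRed ratio, PSI derived from sequencing read proportions per bin multiplied by bin number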
# Measurement conditions: c terminus: a fixed tail appended
In your answer, state the number alone without any accompanying words.

Example entries and their recorded answers appear below.
- Mutant name: "S2F"
  protein stability index: 2.48
- Mutant name: "K14F"
  protein stability index: 1.72
- Mutant name: "R23N"
  protein stability index: 1.29
- Mutant name: "G24Y"
  protein stability index: 1.85
- Mutant name: "D4H"
  protein stability index: 1.41
- Mutant name: "L22A"
  protein stability index: 2.32

Prompt: If you can, please state the reported protein stability index value of L22S .
Response: 1.74

Prompt: Item: E16S
Response: 2.72

Prompt: Now the same for L19S
Response: 2.29
